Reference source for all entries: ChEMBL document CHEMBL1157556

Tested on: NCI-H460
Experiment: Anticancer activity against human H460 cells at 10 uM after 48 hrs by propidium iodide fluorescence assay
Format: functional
property: Activity (%)
The response must be a number in % with no trailing unit.

GET /value?item= `COc1ccc(C(=O)/C=C/C=C(\Cl)c2ccc(OC)cc2OC)c(OC)c1` &field=Activity returns 18

# compound `COc1ccc(C(=O)/C=C/C=C(\Cl)c2ccc(Cl)cc2)cc1` ; its Activity = 33

Notebook: `COc1ccc(C(=O)/C=C/C=C(\Cl)c2ccc(F)cc2)c(OC)c1` , Activity read as 26

Recorded result, `COc1ccc(C(=O)/C=C/C=C(\Cl)c2ccc(Br)cc2)c(OC)c1` , Activity: 16

Consider `COc1ccc(C(=O)/C=C/C=C(\Cl)c2ccc(OC)cc2OC)cc1` . Its measured Activity is 15
